- Test System: UniProtKB Q6QLK5
- Sequence (Q6QLK5 whole entry, the tested form may be a part): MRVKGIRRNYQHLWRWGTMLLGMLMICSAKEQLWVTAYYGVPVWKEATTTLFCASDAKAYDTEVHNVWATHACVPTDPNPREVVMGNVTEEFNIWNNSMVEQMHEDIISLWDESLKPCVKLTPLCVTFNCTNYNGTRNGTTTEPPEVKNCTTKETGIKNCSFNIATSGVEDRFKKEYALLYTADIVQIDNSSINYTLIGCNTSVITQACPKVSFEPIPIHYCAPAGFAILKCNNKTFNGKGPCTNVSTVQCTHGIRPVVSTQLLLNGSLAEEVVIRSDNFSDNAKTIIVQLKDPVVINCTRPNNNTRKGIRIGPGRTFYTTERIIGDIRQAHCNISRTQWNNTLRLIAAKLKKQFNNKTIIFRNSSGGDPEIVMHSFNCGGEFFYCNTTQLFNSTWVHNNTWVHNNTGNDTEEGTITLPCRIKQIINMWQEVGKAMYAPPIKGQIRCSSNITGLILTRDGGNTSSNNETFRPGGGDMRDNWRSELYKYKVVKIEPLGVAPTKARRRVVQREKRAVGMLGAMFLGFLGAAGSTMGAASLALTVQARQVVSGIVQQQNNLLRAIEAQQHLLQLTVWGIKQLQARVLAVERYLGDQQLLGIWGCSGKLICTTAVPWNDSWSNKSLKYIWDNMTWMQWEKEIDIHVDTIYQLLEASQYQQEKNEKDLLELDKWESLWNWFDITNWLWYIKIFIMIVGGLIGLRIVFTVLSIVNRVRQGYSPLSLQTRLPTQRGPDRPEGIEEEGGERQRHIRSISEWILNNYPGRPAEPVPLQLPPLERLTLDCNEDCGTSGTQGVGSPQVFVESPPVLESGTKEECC
- Assay Method Text: inhibitors of HIV fusion peptide binding, primary screen, biochemical, uHTS, fluorescence dequenching (AID 1986)
Calls of active or inactive are those of the source. Rule as the data show it: actives have a measured IC50 and inactives only a lower limit.
Some molecules, each annotated with its measured IC50.

O=C(O)c1[nH]c2ccccc2c1C(c1cc(Cl)cc([N+](=O)[O-])c1O)c1c(C(=O)O)[nH]c2ccccc12 ... 2.55 µM (active)
COc1cc(/C=N/NS(=O)(=O)c2ccc3ccccc3c2)ccc1OCc1ccc(C(=O)O)cc1 ... 27 µM (active)
COc1cc(/C=N/NC(=O)C(Cc2c[nH]c3ccccc23)NC(=O)OCc2ccccc2)cc([N+](=O)[O-])c1O (stereo not given) ... 17.2 µM (active)
CCC(Sc1nc2ccsc2c(=O)n1Cc1ccc(C(=O)O)cc1)C(=O)Nc1ccc(C)c(Cl)c1 (stereo not given) ... 20 µM (active)

Let us move to another entry and its IC50.
The observed IC50 for O=C(O)C1Nc2c(cccc2C(F)(F)F)C2C=CCC12 (stereo not given) when tested with UniProtKB Q6QLK5 stands at 12.7 µM (active)
